tested on: Alternaria solani; assay: Antifungal activity against Alternaria solani at 28 degC after 48 hr microbroth dilution method; type: functional
metric: MIC (µg/mL)
Hi! Could you send only the number? It should be in µg/mL, unit omitted.

Please review the following examples before continuing.
# compound, result units, MIC
rows = [
    ("O=C1CCC(O)c2cccc(O)c21 (centres undefined) [4,8-DIHYDROXY-1-TETRALONE]", "µg/mL", 12.5),
    ("COc1ccc2c3c([nH]c2c1)[C@H](C=C(C)C)N1C(=O)[C@@H]2CCCN2C(=O)[C@@H]1C3 [FUMITREMORGIN]", "µg/mL", 25),
    ("C[C@H]1C(=O)N2c3ccccc3[C@@]3(O)C[C@@H]4C(=O)N[C@](C)(c5nc6ccccc6c(=O)n54)N1[C@@H]23 [FUMIQUINAZOLINE D]", "µg/mL", 25),
]

// next item, MIC requested
Incoming: State the recorded MIC for this entry: C[C@H]1NC(=O)[C@@H](Cc2c[nH]c3ccccc23)n2c1nc1ccccc1c2=O [FUMIQUINAZOLINE G]
Outgoing: 25
